The reported measurements were obtained from PubChem BioAssay (NCI).

I'd be grateful if you could share measured GI50 for these entries.
test system: MOLT-4 leukemia; assay: NCI tumour cell line growth inhibition, 48 h

Exam item: Return reported GI50; argument: Cc1cc(C(=O)Nc2ccc3cc(CN4CCOCC4)ccc3n2)c(C)n1-c1ccccc1
Marked response: 812 nM

Exam item: Dear colleague, I am looking for the recorded GI50 of the following molecule: COc1ccc2[nH]c3c4[nH]c5ccc(OC)cc5c4c4c(c3c2c1)C(=O)NC4=O
Marked response: > 10300 nM

Exam item: Any idea what its GI50 is? The molecule is Nc1nc(Nc2cccnc2)sc1C(=O)c1ccccc1F
Marked response: 2520 nM

Exam item: // returns reported GI50 for input NS(=O)(=O)c1ccc(-c2ccc3c(NC(=O)C4CC4)n[nH]c3c2)cc1
Marked response: > 25000 nM

Exam item: Please look up its GI50: CC12OC(C(=O)C13CC3)C1C(=O)c3ccc4c(ccc5ccccc54)c3C(=O)C12 (stereo unspecified)
Marked response: 28900 nM

Exam item: Requested field: GI50. Item: N#Cc1cc(-c2cc3ccccc3o2)oc1N
Marked response: 1940 nM

---

Please go through the items and note down their TGI.
tested on: SR leukemia; assay: NCI tumour cell line growth inhibition, 48 h

Exam item: // lookup TGI for COC(=O)Nc1nc2ccc(C3(c4ccc(F)cc4)OCCO3)cc2[nH]1
Marked response: > 100 µM

Exam item: Which value of TGI has been reported for CCOC(=O)c1ccc(NCc2ccc3oc(=O)c(-c4ccccc4)nc3c2)cc1 in the records?
Marked response: > 100 µM

Exam item: Give its TGI value. Item: COc1cccc2c1C(=O)c1c(O)c3c(c(O)c1C2=O)CC(O)(C(=O)CO)CC3OC1CC(N2CCOCC2C#N)C(O)C(C)O1 (centres undefined)
Marked response: > 100 µM

Exam item: Would you kindly share the measured TGI for CC(=O)[C@@H](C)C(=O)N1C(=O)OC[C@@]12[C@@H]1CC[C@@H](C1)C2(C)C ?
Marked response: > 100 µM

Exam item: Dear colleague, I am looking for the recorded TGI of the following molecule: CCN1CCN(c2nc3ccccc3c3c2CCOc2ccccc2-3)CC1
Marked response: 24.8 µM

Exam item: Endpoint output: TGI of Clc1cc(Cl)c2ns[s+]c2c1Cl . Value?
Marked response: > 100 µM

Exam item: Consider the molecule O=C(NCP(=O)(c1ccccc1)c1ccccc1)OCc1ccccc1 and give its measured TGI.
Marked response: > 100 µM

Exam item: Which TGI is reported for this molecule? CC(=O)O[C@H]1C(=O)[C@@]2(C)C(C(OC(=O)c3ccccc3)[C@]3(O)CC(OC(=O)C(O)C(NC(=O)c4ccc(C(F)(F)F)cc4)c4ccccc4)C(C)=C1C3(C)C)[C@]1(OC(C)=O)CO[C@@H]1C[C@@H]2O (some centres undefined)
Marked response: 4.96 µM

Exam item: Entry CN1CCN(CCCNc2nc3ccc(Oc4ccc(NC(=O)Nc5cc(C(F)(F)F)ccc5F)cc4)cc3[nH]2)CC1 : reported TGI = ?
Marked response: > 16.8 µM

Exam item: Consider the molecule shown here: COc1ccc(-c2[nH]c3ccc(OC)cc3c2/C=C(\C#N)S(=O)(=O)c2ccccc2)cc1 What is its recorded TGI?
Marked response: 2.6 µM

Exam item: So what's the measured TGI for this one? COc1c(C(=O)/C=C/c2ccccc2)c(O)cc2occc12
Marked response: 22.2 µM

Exam item: Give the measured TGI of CCCc1c(O)nc(Nc2nc3ccccc3[nH]2)[nH]c1=O .
Marked response: > 100 µM

Exam item: # input molecule: O=c1cc(NCC(O)CN2CCCC2)n(Cc2ccccc2)c(=O)n1Cc1ccccc1 (centres undefined) ; wanted: its TGI
Marked response: 31 µM

Exam item: Fill in the blank: the reported TGI of O=C(Nc1n[nH]c2cc(-c3ccccc3)ccc12)C1CC1 is ____.
Marked response: > 25 µM
